Target: human TLR9 (Homo sapiens (Human), UniProt Q9NR96)
Sequence (Q9NR96 26-1032): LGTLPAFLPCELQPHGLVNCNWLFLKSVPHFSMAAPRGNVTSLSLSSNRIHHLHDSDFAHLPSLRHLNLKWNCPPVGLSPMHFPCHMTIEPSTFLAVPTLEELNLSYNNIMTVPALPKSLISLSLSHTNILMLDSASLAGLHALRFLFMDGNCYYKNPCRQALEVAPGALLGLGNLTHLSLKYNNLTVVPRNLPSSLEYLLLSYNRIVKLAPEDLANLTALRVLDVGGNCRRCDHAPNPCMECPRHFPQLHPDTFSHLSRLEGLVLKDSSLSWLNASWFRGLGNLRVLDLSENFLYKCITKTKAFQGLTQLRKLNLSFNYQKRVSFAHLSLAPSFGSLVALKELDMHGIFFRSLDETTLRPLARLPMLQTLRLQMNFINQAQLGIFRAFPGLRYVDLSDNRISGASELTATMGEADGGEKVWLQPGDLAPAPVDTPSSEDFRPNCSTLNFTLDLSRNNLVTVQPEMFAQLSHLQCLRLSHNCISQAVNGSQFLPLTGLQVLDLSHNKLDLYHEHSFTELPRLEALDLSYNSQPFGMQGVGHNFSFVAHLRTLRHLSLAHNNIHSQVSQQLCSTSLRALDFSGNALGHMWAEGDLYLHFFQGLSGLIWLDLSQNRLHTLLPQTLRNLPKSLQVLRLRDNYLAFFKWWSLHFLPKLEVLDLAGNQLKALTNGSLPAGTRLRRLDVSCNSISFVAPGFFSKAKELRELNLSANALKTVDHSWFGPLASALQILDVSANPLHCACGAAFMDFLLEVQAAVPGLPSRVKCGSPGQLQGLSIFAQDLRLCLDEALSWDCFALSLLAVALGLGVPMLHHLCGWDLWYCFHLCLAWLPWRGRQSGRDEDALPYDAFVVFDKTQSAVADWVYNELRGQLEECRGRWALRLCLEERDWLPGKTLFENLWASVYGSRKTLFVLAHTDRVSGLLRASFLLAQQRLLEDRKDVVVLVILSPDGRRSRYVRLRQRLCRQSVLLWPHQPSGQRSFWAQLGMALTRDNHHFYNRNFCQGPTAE
Experiment: TLR9 inhibition reporter assay (HEK-Blue, SEAP)
Conditions: HEK-Blue cells overexpressing human TLR9, ODN2006 5 nM stimulation
pIC50: −log10 of the molar value.
test_readout: pIC50

COc1ccc(-c2[nH]c3ccc(-c4ncc[nH]4)cc3c2C(C)C)cc1OC; 5.17
COc1ccc(-c2[nH]c3ccc(-c4ccc(NC5CCCNC5)cc4)cc3c2C(C)C)cc1OC (stereo not drawn); 5.63
COc1ccc(-c2[nH]c3ccc(-c4cccc(C(=O)N5CCN(C6CCN(C)CC6)CC5)c4)cc3c2CC(F)(F)F)cc1OC; 5.64
CNCC(=O)N1CCc2cc(-c3ccc4[nH]c(-c5ccnc(C)c5)c(C(C)C)c4c3)sc2C1; 6.10
Cc1cc(-c2[nH]c3ccc(-c4nnc(CCN5CCCCC5)o4)cc3c2C(C)C)ccn1; 5.91

a. FC(F)Cc1c(-c2ccnc3[nH]ncc23)[nH]c2ccc(-c3nnc([C@@H]4CCCNC4)o3)cc12
b. COc1ccc(-c2[nH]c3ccc(-c4ccnc(N5CCN(Cc6ccsc6)CC5)c4)cc3c2C(C)C)cc1OC
c. CC(C)c1c(-c2ccnc3[nH]ncc23)[nH]c2ccc(-c3nnc(C4CCN(C(=O)CN(C)C)CC4)o3)cc12
Please list these molecules in decreasing order of pIC50. Please respond by ranking the labels in the order requested. c, a, b
(c: 6.49, a: 5.49, b: 5.06)

P. Cc1cc(-c2[nH]c3ccc(-c4nnc(C5CCN(C(C)C)CC5)[nH]4)cc3c2C(C)C)ccn1
Q. Cc1cc(-c2[nH]c3ccc(-c4nnc(C5CCCN(C(C)C)C5)[nH]4)cc3c2C(C)C)ccn1 (stereo not drawn) [Example 188]
// select label with min value of measured pIC50 from [ P , Q ] Mark your selection by writing its label. P
(P: 5.39, Q: 6.48)

I. Cc1cc(-c2[nH]c3ccc(-c4nnc(Cc5cccnc5)o4)cc3c2C(C)C)ccn1
II. COc1ccc(-c2[nH]c3ccc(-c4nnc(C(=O)N(C)CCCN(C)C)o4)cc3c2C(C)C)cc1OC
III. CC(C)c1c(-c2ccnc(N)c2)[nH]c2ccc(-c3nnc(C(=O)N(C)C)o3)cc12
IV. COc1ccc(-c2[nH]c3ccc(-c4nnc(C5CCN(C6CCN(C)CC6)CC5)o4)cc3c2C(C)C)cc1OC
V. Cc1cc(-c2[nH]c3ccc(-c4nnc(C5CCCC(N)C5)o4)cc3c2C(C)C)ccn1 (stereo not drawn)
Ascending by pIC50, please. Please respond by ranking the labels in the order requested. III, I, V, II, IV
(III: 4.53, I: 4.80, V: 5.55, II: 5.91, IV: 6.20)

I. COc1ccc(-c2[nH]c3ccc(-c4nnc(C(=O)N5CCC(N6CCCC6)CC5)o4)cc3c2C(C)C)cc1OC
II. COc1ccc(-c2[nH]c3ccc(-c4nnc(C(=O)N(C)CCc5ccccn5)o4)cc3c2C(C)C)cc1OC
// select label with min value of measured pIC50 from [ I , II ] Mark your selection by writing its label. II
(II: 4.88, I: 5.85)

* * *

Target: UniProt Q9NYK1
Sequence (Q9NYK1 27-1049): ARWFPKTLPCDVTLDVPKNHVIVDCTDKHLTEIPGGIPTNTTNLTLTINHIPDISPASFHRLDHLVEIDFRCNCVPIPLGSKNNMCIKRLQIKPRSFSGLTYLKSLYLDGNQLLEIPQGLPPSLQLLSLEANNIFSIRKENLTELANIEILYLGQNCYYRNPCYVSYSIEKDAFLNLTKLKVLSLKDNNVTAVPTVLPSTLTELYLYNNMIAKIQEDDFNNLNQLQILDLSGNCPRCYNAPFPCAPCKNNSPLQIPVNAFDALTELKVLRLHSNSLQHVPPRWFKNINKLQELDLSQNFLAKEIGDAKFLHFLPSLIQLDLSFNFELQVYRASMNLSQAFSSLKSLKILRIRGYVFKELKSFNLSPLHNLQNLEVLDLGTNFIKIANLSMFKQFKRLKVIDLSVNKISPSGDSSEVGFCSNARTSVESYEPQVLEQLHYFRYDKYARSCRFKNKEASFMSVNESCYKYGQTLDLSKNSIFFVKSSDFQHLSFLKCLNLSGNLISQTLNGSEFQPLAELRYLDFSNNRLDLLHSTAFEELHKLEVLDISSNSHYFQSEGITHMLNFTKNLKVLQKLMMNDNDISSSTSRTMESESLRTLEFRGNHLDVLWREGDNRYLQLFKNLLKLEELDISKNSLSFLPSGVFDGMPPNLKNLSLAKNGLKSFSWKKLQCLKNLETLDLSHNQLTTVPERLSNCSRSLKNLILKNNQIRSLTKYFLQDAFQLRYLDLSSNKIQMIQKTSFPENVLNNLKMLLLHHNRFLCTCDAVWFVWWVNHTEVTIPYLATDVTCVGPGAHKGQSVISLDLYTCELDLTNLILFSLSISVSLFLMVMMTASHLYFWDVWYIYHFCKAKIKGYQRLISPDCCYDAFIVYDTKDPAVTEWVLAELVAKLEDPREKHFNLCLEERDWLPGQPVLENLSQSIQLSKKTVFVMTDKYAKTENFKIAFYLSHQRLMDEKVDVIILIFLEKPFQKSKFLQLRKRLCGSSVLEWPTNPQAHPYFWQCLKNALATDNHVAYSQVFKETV
Test: TLR7 inhibition reporter assay (HEK-Blue, SEAP)
Settings: HEK-Blue cells overexpressing human TLR7, gardiquimod 7.5 μM stimulation
test_readout: IC50 (nM)

Use the examples below as a reference point.
Cc1cc(-c2[nH]c3ccc(-c4cc5c(s4)CNCC5)cc3c2C(C)C)cc(C)n1; 2.6
Cc1cc(-c2[nH]c3ccc(-c4ccc(CO)nc4)cc3c2C(C)C)cc(C)n1; 13

I. Cc1cc(-c2[nH]c3ccc(-c4ccc(N5CCNCC5)nc4)cc3c2C(C)C)cc(C)n1
II. COc1ccc(-c2[nH]c3ccc(-c4nnc(C[C@@H]5CCCCN5)o4)cc3c2C(C)C)cc1OC
// select label with min value of measured IC50 from [ I , II ] Mark your selection by writing its label. I
(I: 1.7 nM, II: 44 nM)

P. Cc1cc(-c2[nH]c3ccc(-c4nc(C(=O)NC5CCN(C(C)C)CC5)co4)cc3c2C(C)C)ccn1
Q. CCOCCNCc1nnc(-c2ccc3[nH]c(-c4ccc(OC)c(OC)c4)c(C(C)C)c3c2)o1
R. Cc1cc(-c2[nH]c3ccc(-c4ccc(NC(=O)CN(C)C)nc4)cc3c2C(C)C)cc(C)n1
Ascending by IC50, please. Please respond by ranking the labels in the order requested. R, P, Q
(R: 9.7 nM, P: 46 nM, Q: 157 nM)

* * *

Molecular target: human TLR8 (Homo sapiens (Human))
Sequence (Q9NR97 27-1041): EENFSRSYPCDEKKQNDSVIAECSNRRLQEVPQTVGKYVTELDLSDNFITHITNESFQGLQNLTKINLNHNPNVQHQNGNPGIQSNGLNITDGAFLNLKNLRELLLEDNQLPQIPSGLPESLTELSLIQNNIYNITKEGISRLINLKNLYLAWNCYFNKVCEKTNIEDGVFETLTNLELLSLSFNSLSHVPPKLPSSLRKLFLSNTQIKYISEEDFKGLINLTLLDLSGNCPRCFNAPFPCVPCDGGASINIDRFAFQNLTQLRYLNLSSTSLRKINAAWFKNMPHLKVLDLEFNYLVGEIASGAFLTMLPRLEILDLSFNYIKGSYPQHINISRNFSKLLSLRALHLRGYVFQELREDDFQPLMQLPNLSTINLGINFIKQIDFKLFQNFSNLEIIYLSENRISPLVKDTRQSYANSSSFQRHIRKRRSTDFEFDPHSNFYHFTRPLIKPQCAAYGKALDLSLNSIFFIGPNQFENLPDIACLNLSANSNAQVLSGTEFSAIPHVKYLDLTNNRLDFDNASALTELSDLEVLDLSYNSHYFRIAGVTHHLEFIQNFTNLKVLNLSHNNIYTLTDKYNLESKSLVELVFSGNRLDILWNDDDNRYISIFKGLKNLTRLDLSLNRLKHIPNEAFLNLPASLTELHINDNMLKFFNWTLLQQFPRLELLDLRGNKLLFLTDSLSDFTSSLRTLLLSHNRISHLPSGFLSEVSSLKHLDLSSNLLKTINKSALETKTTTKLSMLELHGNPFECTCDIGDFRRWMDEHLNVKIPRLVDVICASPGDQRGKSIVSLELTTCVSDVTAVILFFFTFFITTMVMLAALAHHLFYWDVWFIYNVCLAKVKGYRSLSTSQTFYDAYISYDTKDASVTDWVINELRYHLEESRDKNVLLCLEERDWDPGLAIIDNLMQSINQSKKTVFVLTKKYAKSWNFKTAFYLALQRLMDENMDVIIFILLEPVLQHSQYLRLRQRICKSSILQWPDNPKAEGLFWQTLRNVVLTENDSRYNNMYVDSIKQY
Assay: TLR8 inhibition reporter assay (HEK-Blue, SEAP)
Settings: HEK-Blue cells overexpressing human TLR8, R848 15.9 μM stimulation
pIC50: −log10 of the molar value.
test_readout: pIC50

Cc1cc(-c2[nH]c3ccc(-c4nc(C(=O)NCCN5CCOCC5)co4)cc3c2C(C)C)cc(C)n1; 8.06
COc1ccc(-c2[nH]c3ccc(-c4ccc(OC5CCN(C)CC5)cc4)cc3c2C(C)C)cc1OC; 7.66
COc1ccc(-c2[nH]c3ccc(-c4nnc(C[C@H]5CCCCN5)o4)cc3c2C(C)C)cc1OC; 8.41
Cc1cc(-c2[nH]c3ccc(-c4ccnc(N5CCNCC5)c4)cc3c2C(C)C)ccn1; 8.24

A. CC(C)c1c(-c2ccnc3[nH]ncc23)[nH]c2ccc(-c3nc(C(=O)NCCN(C)C)co3)cc12
B. FC(F)Cc1c(-c2ccnc3[nH]ncc23)[nH]c2ccc(-c3nnc([C@@H]4CCCNC4)o3)cc12
C. COc1ccc(-c2[nH]c3ccc(-c4nnc(C(=O)NCCNC(C)=O)o4)cc3c2C(C)C)cc1OC
D. COc1ccc(-c2[nH]c3ccc(-c4cnc(N5CCNCC5)cc4C)cc3c2C(C)C)cc1OC
E. Cc1cc(-c2[nH]c3ccc(-c4ccc(NC(=O)CN(C)C)nc4)cc3c2C(C)C)cc(C)n1
Please list these molecules in decreasing order of pIC50. Please respond by ranking the labels in the order requested. E, A, D, C, B

I. Cc1cc(-c2[nH]c3ccc(-c4ccc(NC(C)C)nc4)cc3c2C(C)C)ccn1
II. COc1ccc(-c2[nH]c3ccc(-c4ccc(OC5CCN(CC(C)C)CC5)cc4)cc3c2C(C)C)cc1OC
// select label with min value of measured pIC50 from [ I , II ] Mark your selection by writing its label. II

1. Cc1cc(-c2[nH]c3ccc(-c4nnc(C(=O)NCCN(C)C)s4)cc3c2C(C)C)ccn1
2. COc1ccc(-c2[nH]c3ccc(-c4nnc(CNCCOC(C)C)o4)cc3c2C(C)C)cc1OC
// select label with min value of measured pIC50 from [ 1 , 2 ] Mark your selection by writing its label. 2
(2: 6.28, 1: 8.70)

* * *

Target: human TLR8 (Homo sapiens (Human))
Assay: TLR8 inhibition reporter assay (HEK-Blue, SEAP)
Details: HEK-Blue cells overexpressing human TLR8, R848 15.9 μM stimulation
Source text: TLR7/8/9 Inhibition Reporter Assays HEK-Blue™-cells (Invivogen) overexpressing human TLR7, TLR8 or TLR9 receptors were used for screening inhibitors of these receptors using an inducible SEAP (secreted embryonic alkaline phosphatase) reporter gene under the control of the IFN-β minimal promoter fused to five NF-κc Band AP-1-binding sites. […]
test_readout: IC50 (nM)

Use the examples below as a reference point.
Cc1cc(-c2[nH]c3ccc(-c4nc(C(=O)NC5CCN(C(C)C)CC5)co4)cc3c2C(C)C)ccn1; 2.9
Cc1cc(-c2[nH]c3ccc(-c4nnc(C5CN6CCC5CC6)o4)cc3c2C(C)C)cc(C)n1 (stereo not shown) [Example 297]; 3.1

1. CC(C)c1c(-c2ccnc3[nH]ncc23)[nH]c2ccc(-c3nnc(C4CCN(CC(=O)N(C)C)CC4)o3)cc12
2. COc1ccc(-c2[nH]c3ccc(-c4cccc(C(=O)N5CCN(C6CCN(C)CC6)CC5)c4)cc3c2CC(F)(F)F)cc1OC
3. COc1ccc(-c2[nH]c3ccc(-c4ccc(C5=CC(C)(C)NC(C)(C)C5)cc4)cc3c2C(C)C)cc1OC
4. COc1ccc(-c2[nH]c3ccc(-c4cccc(C(=O)N5CC6CNCC6C5)c4)cc3c2C(C)C)cc1OC (stereo not shown)
5. COc1ccc(-c2[nH]c3ccc(-c4cccc(C(=O)NCCC5CCCN5C)c4)cc3c2CC(F)(F)F)cc1OC (stereo not shown)
Please list these compounds in decreasing order of IC50. Please respond by ranking the labels in the order requested. 3, 2, 5, 1, 4
(3: 340 nM, 2: 139 nM, 5: 88 nM, 1: 9.8 nM, 4: 4.1 nM)

* * *

Target: UniProtKB Q9NR97
Experiment: TLR8 inhibition reporter assay (HEK-Blue, SEAP)
Conditions: HEK-Blue cells overexpressing human TLR8, R848 15.9 μM stimulation
Text: TLR7/8/9 Inhibition Reporter Assays HEK-Blue™-cells (Invivogen) overexpressing human TLR7, TLR8 or TLR9 receptors were used for screening inhibitors of these receptors using an inducible SEAP (secreted embryonic alkaline phosphatase) reporter gene under the control of the IFN-β minimal promoter fused to five NF-κc Band AP-1-binding sites. […]
pIC50: −log10 of the molar value.
test_readout: pIC50

Use the examples below as a reference point.
Cc1cc(-c2[nH]c3ccc(-c4nnc(C5CCCN(CC(=O)N(C)C)C5)[nH]4)cc3c2C(C)C)ccn1 (stereo not drawn); 8.66
CCc1c(-c2ccc(OC)c(OC)c2)[nH]c2ccc(-c3cccc(CN4CCN(C)CC4)c3)cc12; 6.64
CCc1c(-c2ccnc(C)c2)[nH]c2ccc(-c3noc(C4CCCNC4)n3)cc12 (stereo not drawn); 7.96
Cc1cc(-c2[nH]c3ccc(-c4nnc(C5CCN(C(=O)CN(C)C)CC5)o4)cc3c2C(C)C)ccn1; 8.66
CNCCCNC(=O)c1coc(-c2ccc3[nH]c(-c4cc(C)nc(C)c4)c(C(C)C)c3c2)n1; 8.06
Cc1cc(-c2[nH]c3ccc(-c4nnc(N)o4)cc3c2C(C)C)ccn1; 7.85
COc1ccc(-c2[nH]c3ccc(-c4ccc(N5CCN[C@H](C)C5)cc4)cc3c2C(C)C)cc1OC; 7.35
Cc1cn2cc(-c3[nH]c4ccc(-c5ccc(N6CCNCC6)nc5)cc4c3C(C)C)ccc2n1; 6.67

a. COc1ccc(-c2[nH]c3ccc(-c4cccc(C(=O)N5CC6CNCC6C5)c4)cc3c2CC(F)(F)F)cc1OC (stereo not drawn)
b. Cc1cc(-c2[nH]c3ccc(-c4cc5c(s4)CN(C(C)C)CC5)cc3c2C(C)C)ccn1
// select label with min value of measured pIC50 from [ a , b ] Mark your selection by writing its label. a
(a: 7.57, b: 9.05)

P. COc1ccc(-c2[nH]c3ccc(-c4ccnc(N5CCN(C6CCC6)CC5)c4)cc3c2C(C)C)cc1OC
Q. COc1ccc(-c2[nH]c3ccc(-c4nnc(CN5CCN(C(C)=O)CC5)o4)cc3c2C(C)C)cc1OC
R. CC(C)c1c(-c2ccnc3[nH]ncc23)[nH]c2ccc(-c3nnc(C(=O)N4CC5CNCC5C4)o3)cc12 (stereo not drawn)
S. Cc1cc(-c2[nH]c3ccc(-c4nnc([C@@H]5CCC[C@@H]5N)o4)cc3c2C(C)C)ccn1
Ascending by pIC50, please. Please respond by ranking the labels in the order requested. Q, P, R, S
(Q: 6.40, P: 7.25, R: 8.04, S: 8.62)

I. Cc1cc(-c2[nH]c3ccc(-c4nnc(C[C@H]5CCCN5)o4)cc3c2C(C)C)ccn1
II. COc1ccc(-c2[nH]c3ccc(-c4nnc(C(=O)N5CCCN(C)CC5)o4)cc3c2C(C)C)cc1OC
For the two items I and II , which reports the higher pIC50 value? Mark your selection by writing its label. I
(I: 9.00, II: 7.82)

A. COc1ccc(-c2[nH]c3ccc(-c4ccc(OCCN5CCCC5)cc4)cc3c2C(C)C)cc1OC
B. CNC(=O)CN1CCC(c2nnc(-c3ccc4[nH]c(-c5ccc(OC)c(OC)c5)c(C(C)C)c4c3)[nH]2)CC1
For the two items A and B , which reports the higher pIC50 value? Mark your selection by writing its label. A

P. CCc1c(-c2ccc(OC)c(OC)c2)[nH]c2ccc(-c3noc(CCC4CCNCC4)n3)cc12
Q. CC(C)c1c(-c2ccnc3[nH]ncc23)[nH]c2ccc(-c3ccc4c(cnn4C)c3)cc12
R. COc1ccc(-c2[nH]c3ccc(-c4nnc(C5CCN(C6CCN(C)CC6)CC5)o4)cc3c2C(C)C)cc1OC
S. Cc1cc(-c2[nH]c3ccc(-c4csc(N5CCCCC5)n4)cc3c2C(C)C)cc(C)n1
Ascending by pIC50, please. Please respond by ranking the labels in the order requested. S, P, Q, R

I. CNC(=O)CN1CCc2cc(-c3ccc4[nH]c(-c5cc(C)nc(C)c5)c(C(C)C)c4c3)sc2C1
II. Cc1cc(-c2[nH]c3ccc(-c4nnc(C5CCNCC5)o4)cc3c2C(C)C)ccn1
For the two items I and II , which reports the higher pIC50 value? Mark your selection by writing its label. I

P. CCc1c(-c2ccnc(C)c2)[nH]c2ccc(-c3noc(CN(C)C)n3)cc12
Q. Cc1cc(-c2[nH]c3ccc(-c4ccc(NC(=O)C(F)(F)F)nc4)cc3c2C(C)C)ccn1
For the two items P and Q , which reports the higher pIC50 value? Mark your selection by writing its label. Q

a. Cc1cc(-c2[nH]c3ccc(-c4cc5c(s4)CN(C(=O)C[C@H](C)O)CC5)cc3c2C(C)C)cc(C)n1
b. CCc1c(-c2ccc(OC)c(OC)c2)[nH]c2ccc(-c3nnc(C(=O)NC4CCN(C(C)C)CC4)o3)cc12
// select label with min value of measured pIC50 from [ a , b ] Mark your selection by writing its label. a
